Listing: nuclei count of selected compounds
Assay: inhibitors of E-selectin induction by TNFa, primary screen, imaging, HUVEC, immunofluorescence, MLSMR starter and 10KST1 sets (AID 487);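 further: 100% = median nuclei count of all wells on the same plate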
Settings: HUVEC TNFalpha-induced E-selectin immunofluorescence imaging, at 2 µM; measured here: cell number, toxicity
outcome-measure: nuclei count (%)

CC1(C)NC(=O)N(CCOc2cccc(Cl)c2Cl)C1=O; 92.1
CCCOc1ccc(C2C(C(=O)OC)=CN(CCOC)C=C2C(=O)OC)cc1; 111
CCCOC(=O)CSC1=C(C#N)C(c2ccc3c(c2)OCO3)CC(=O)N1 (centres undefined); 161
CCCCc1nccn1CCn1ccnc1CCCC; 108
CC1CCc2c(sc(N)c2C(N)=O)C1 (centres undefined); 98.4
O=C(NCc1ccccn1)c1cc(-n2cnnc2)ccc1Cl; 110
Cn1c(=O)c2c(nc(N3CCC(C(N)=O)CC3)n2CCSc2nc3ccccc3s2)n(C)c1=O; 183
CCC1(NC(C)=O)CC2CC1CC2NC(C)=O (centres undefined); 103
O=C(C1CC1)N1CCc2cc(Br)cc(S(=O)(=O)N3CCOCC3)c21; 112
CCCCS(=O)(=O)NC1=NCN(C2CCN(Cc3ccccc3)CC2)CN1; 113
c1ccc2c(N3CCCCC3)nc(N3CCCCC3)nc2c1; 159
CCOC(=O)c1c(C)oc2c1c(C(c1ccncc1)N1CCOCC1)c(O)c1ccccc12 (centres undefined); 107
Nc1nc(-n2cnnc2)nn1-c1ccccc1; 118
O=S(=O)(Nc1nc2ccccc2nc1NCc1ccco1)c1ccc(Cl)cc1; 129

FYI, the data here is from PubChem BioAssay.
